Protein target, amino acids: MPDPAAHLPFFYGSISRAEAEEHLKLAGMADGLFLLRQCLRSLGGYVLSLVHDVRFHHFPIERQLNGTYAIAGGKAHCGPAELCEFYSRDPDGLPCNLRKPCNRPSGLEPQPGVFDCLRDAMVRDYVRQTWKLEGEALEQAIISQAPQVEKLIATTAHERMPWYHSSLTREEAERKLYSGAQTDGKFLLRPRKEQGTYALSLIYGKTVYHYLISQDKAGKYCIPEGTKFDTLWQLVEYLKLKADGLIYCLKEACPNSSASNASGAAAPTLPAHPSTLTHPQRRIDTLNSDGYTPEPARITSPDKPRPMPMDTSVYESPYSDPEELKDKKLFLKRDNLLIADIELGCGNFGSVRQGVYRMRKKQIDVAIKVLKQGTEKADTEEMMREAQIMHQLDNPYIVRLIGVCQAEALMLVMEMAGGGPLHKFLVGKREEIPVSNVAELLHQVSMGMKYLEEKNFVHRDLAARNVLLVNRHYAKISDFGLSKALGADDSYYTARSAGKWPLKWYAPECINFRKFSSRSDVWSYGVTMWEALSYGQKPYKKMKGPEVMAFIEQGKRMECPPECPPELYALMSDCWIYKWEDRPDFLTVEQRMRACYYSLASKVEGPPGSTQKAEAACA
MEASURED PARAMETER: IC50

Form field: reported IC50 of "CONC(=O)c1ccc(C)c(Nc2nc(N(C)CC(C)(C)C)nc(N3CCCN(C)CC3)n2)c1"
> 50 µM

----------
# ASSAY TARGET: Mitogen-activated protein kinase 14 (Homo sapiens, UniProt Q16539)
# Sequence (Q16539 whole entry): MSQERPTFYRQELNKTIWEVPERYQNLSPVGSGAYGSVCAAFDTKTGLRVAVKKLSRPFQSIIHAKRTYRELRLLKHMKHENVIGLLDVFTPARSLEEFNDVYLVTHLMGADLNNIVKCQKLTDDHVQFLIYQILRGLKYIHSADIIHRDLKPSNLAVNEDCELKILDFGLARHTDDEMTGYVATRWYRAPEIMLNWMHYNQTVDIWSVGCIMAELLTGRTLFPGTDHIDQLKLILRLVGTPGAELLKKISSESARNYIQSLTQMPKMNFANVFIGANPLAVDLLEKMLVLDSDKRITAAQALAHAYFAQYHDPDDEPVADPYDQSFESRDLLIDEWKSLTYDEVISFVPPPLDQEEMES
# MEASUREMENT DESCRIPTION: Inhibition of human p38-alpha expressed in Escherichia coli
pIC50: −log10 of the molar value.
Use Satisfied when the recorded pIC50 is no lower than 7; use Not satisfied when it is lower.

Decide: pIC50 of "CONC(=O)c1ccc(C)c(Nc2nc(N[C@H]3CCNC3)nc(N(C)CC(C)(C)C)n2)c1" >= 7?
Satisfied

Decide: pIC50 of "Cc1ccc(C(N)=O)cc1Nc1nc(N[C@H]2CCNC2)nc(N(C)CC(C)(C)C)n1" >= 7?
Satisfied

----------
# ASSAY TARGET: Mitogen-activated protein kinase 14 (Homo sapiens, UniProt Q16539)
# MEASUREMENT DESCRIPTION: Inhibition of human p38-alpha expressed in Escherichia coli
MEASURED PARAMETER: log10(IC50) (log10 of the value in µM)
Answers are given as log10 of IC50 in µM.

Study these solved cases before continuing.
- COMPOUND: "Cc1ccc(C(N)=O)cc1Nc1nc(N[C@H]2CCNC2)nc(N(C)CC(C)C)n1"
  log10(IC50): -1.55
- COMPOUND: "CONC(=O)c1ccc(C)c(Nc2nc(N(C)CC(C)(C)C)nc(N3CCN(C)CC3)n2)c1"
  log10(IC50): -1.24
- COMPOUND: "Cc1ccc(C(N)=O)cc1Nc1nc(N[C@H]2CCNC2)nc(N(C)CC(C)c2ccccc2)n1 (stereo partly drawn)"
  log10(IC50): -1.08

Form field: reported log10(IC50) of "Cc1ccc(C(N)=O)cc1Nc1nc(N)nc(NC[C@@H]2CC[C@H]3C[C@@H]2C3(C)C)n1"
0.77

Form field: reported log10(IC50) of "Cc1ccc(C(N)=O)cc1Nc1nc(N[C@H]2CCNC2)nc(N(C)CC2CCCCC2)n1"
-0.60

Form field: reported log10(IC50) of "Cc1ccc(C(N)=O)cc1Nc1nc(NC[C@@H]2CC[C@H]3C[C@@H]2C3(C)C)nc(N2CCCNCC2)n1"
0.13

Form field: reported log10(IC50) of "Cc1ccc(C(=O)NC2CCCC2)cc1Nc1nc(N[C@H]2CCNC2)nc(N(C)CC(C)(C)C)n1"
-1.00

Form field: reported log10(IC50) of "Cc1ccc(C(=O)NO)cc1Nc1nc(N[C@H]2CCNC2)nc(N(C)CC(C)(C)C)n1"
-1.80

Form field: reported log10(IC50) of "Cc1ccc(C(N)=O)cc1Nc1nc(NCC(C)C)nc(N[C@H]2CCNC2)n1"
-1.14
